System: JCK
assay_name: qHTS profiling for inhibitors of Plasmodium falciparum proliferation (AID 504749);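 further: 0% = DMSO vehicle and full inhibition = artemisinin control; nearly all actives have a fitted effect of over 60% in size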
condition_description: P. falciparum in erythrocytes, SYBR Green DNA, 72 h; series mostly up to 28.7 µM
Records with an inconclusive call do not appear. Active and inactive are the calls of the source. The call rests on the fitted dose curve; in most records, active means well fitted inhibition curve with a large enough effect; inconclusive means small, poorly fitted or top-dose-only effect; inactive means flat fitted curve, though single readings scatter.
Write down one outcome, taken from 1 = active, -1 = inactive

Solved entries:
compound: C[N+](C)(C)CC[N+]1(C)Cc2c(Cl)c(Cl)c(Cl)c(Cl)c2C1
class_label: -1
--
compound: O=C(O)CCCCC1CCSS1 (stereo unspecified)
class_label: -1
--
compound: CCN(CC)CC1CCCCN1CC(=O)N1c2ccccc2C(=O)Nc2cccnc21 (stereo unspecified)
class_label: -1
--
compound: O=C(OOC(=O)c1ccccc1)c1ccccc1
class_label: -1
--
compound: COC(=O)c1cccnc1
class_label: -1

So what was the verdict on "COC(=O)c1ccc(O)cc1" in this test? -1

So what was the verdict on "C[C@@H]1CCC[C@H](C)N1" in this test? -1
